Reference source for all entries: patent US20220259289A1

# ASSAYED_TARGET: unrelated Fc-fused recombinant protein
# METHOD_DESCRIPTION: ELISA, negative control Fc protein
Exercise: state measured log10 of ELISA Fc Control (RLU) for each of the binders provided.
Please note: log10 values; quantity ELISA Fc Control (RLU); unit RLU.

Request: Item under review: ISOP193HR9P1G6 (designed binder, not shown: small tags and cut ends) LPAPKNLVVSRVTEDSARLSWTAPDAAFDSFDIYYYELRLGGEAIVLTVPGSERSYDLTGLKPGTEYLVTIYGVKVCEQSYPLSAISTT . Reported log10 of ELISA Fc Control (RLU)?
Result: 3.91

Request: Item under review: ISOP193HR9P1A6 (designed binder, not shown: small tags and cut ends) LPAPKNLVVSRVTEDSARLSWTAPDAAFDSFDIYYYELRLGGEAIVLTVPGSERSYDLTGLKPGTEYLVSIYGVKGCGYSDPLSAIFTT . Reported log10 of ELISA Fc Control (RLU)?
Result: 4.40

Request: Item under review: ISOP193ER9P1D7 (designed binder, not shown: small tags and cut ends) LPAPKNLVVSRVTEDSARLSWTAPDAAFDSFDIYYGEHWKLGEAIVLTVPGSERSYDLTGLKPGTEYLVTIYGVKGGMSSNPLSAIFTT . Reported log10 of ELISA Fc Control (RLU)?
Result: 3.23

Request: Item under review: ISOP193ER9P1E8 (designed binder, not shown: small tags and cut ends) LPAPKNLVVSRVTEDSARLSWTAPDAAFDSFDIYYFEHPVGGEAIVLTVPGSERSYDLTGLKPGTEYLVTIYGVKGGELSKPLSAIFTT . Reported log10 of ELISA Fc Control (RLU)?
Result: 2.94

Request: Item under review: ISOP193HR9P1B11 (designed binder, not shown: small tags and cut ends) LPAPKNLVVSRVTEDSARLSWTAPDAAFDSFEIYYFELRLGGEAIVLTVPGSERSYDLTGLKPGTEYLVTIYGVKGCGYSDPLSAIFTT . Reported log10 of ELISA Fc Control (RLU)?
Result: 4.18

Request: Item under review: ISOP193HR9P1B7 (designed binder, not shown: small tags and cut ends) LPAPKNLVVSRVTEDSARLSWTAPDAAFDSFEIYYFELRLGGEAIVLTVPGSERSYDLTGLKPGTEYLVSIYGVKGCGYSDPLSAIFTT . Reported log10 of ELISA Fc Control (RLU)?
Result: 4.11

Request: Item under review: ISOP193HR9P1G4 (designed binder, not shown: small tags and cut ends) LPAPKNLVVSRVTEDSARLSWTAPDAAFDSFEIYYFELRLGGEAIVLTVPGSERSYDLTGLKPGTEYLVTIYGVKGGDYSPPLSAIFTT . Reported log10 of ELISA Fc Control (RLU)?
Result: 2.98

Request: Item under review: ISOP193FR9P1D1 (designed binder, not shown: small tags and cut ends) LPAPKNLVVSRVTEDSARLSWTAPDAAFDSFFIQYLEDVTNGEAIVLTVPGSERSYDLTGLKPGTEYRVPIAGVKGGRDSQPLSAIFTT . Reported log10 of ELISA Fc Control (RLU)?
Result: 3.23

Request: Item under review: ISOP193ER9P1A3 (designed binder, not shown: small tags and cut ends) LPAPKNLVVSRVTEDSARLSWTTPDAAFDSFDIYYFEHPVGGEAIVLTVPGSERSYDLTGLKPGTEYLVTIYGVKGGYLSKPLSAIFTT . Reported log10 of ELISA Fc Control (RLU)?
Result: 3.48
